# Lookup of reported %Inh keyed by entry
Test system: RSK1(Kin.Dom.2-C-terminal)
Construct: gene RPS6KA1
Details: concentration: 1 μM, replicates: in singlicate; n = 1;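 note: KINOMEscan kinase panel screen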
Report only the number, with the unit % understood.

Reference set (3 entries):
[
  {
    "compound.string": "CCNc1nccc(-c2c(-c3ccc(F)cc3)ncn2C2CCN(C)CC2)n1",
    "subject.of.test": "RSK1(Kin.Dom.2-C-terminal)",
    "value.type": "%Inh",
    "value.reported": 50
  },
  {
    "compound.string": "CNc1nccc(-c2ccc3c(N)n[nH]c3c2)n1",
    "subject.of.test": "RSK1(Kin.Dom.2-C-terminal)",
    "value.type": "%Inh",
    "value.reported": 22
  },
  {
    "compound.string": "Fc1cc(Cl)ccc1Nc1ccnc2cc(-c3ccc(CN4CCSCC4)o3)ccc12",
    "subject.of.test": "RSK1(Kin.Dom.2-C-terminal)",
    "value.type": "%Inh",
    "value.reported": 25
  }
]

Prompt: Identify the measured %Inh of COC(=O)Nc1nc2ccc(Oc3ccc(NC(=O)Nc4cc(C(F)(F)F)ccc4F)cc3)cc2[nH]1.Cl for RSK1(Kin.Dom.2-C-terminal).
Response: 13

Prompt: Please tell me: %Inh of Cc1nn2c(=O)cc(N3CCO[C@H](C)C3)nc2n1Cc1cccc(Cl)c1Cl , system RSK1(Kin.Dom.2-C-terminal)?
Response: 4

----------
Test system: INSRR
Conditions: concentration: 1 μM, replicates: in singlicate; n = 1
value.type: %Inh (%)
Reply numerically in %, unit not repeated.

Prompt: Given the compound Cc1ccc(C)c(NC(=O)Nc2ccc(C)c(-c3ccc(C(=O)Nc4ccncc4)cc3)c2)c1 , what is its reported %Inh?
Response: 0

Prompt: Any idea what %Inh was measured for Cc1nn2c(=O)cc(N3CCO[C@H](C)C3)nc2n1Cc1cccc(Cl)c1Cl ?
Response: 0

Prompt: # query: %Inh of entry CN(c1ccc2c(c1)nc(NCc1ccccc1)n2C)c1ccnc(Nc2ccc(CS(C)(=O)=O)cc2)n1.Cl
Response: 44

Prompt: Could you tell me which %Inh is on file for Nc1ncc(-c2ccc3nccc(-c4ccncc4)c3c2)cc1S(=O)(=O)N1CCCCC1 ?
Response: 0

Prompt: Please report the recorded %Inh for CNc1nccc(-c2ccc3c(N)n[nH]c3c2)n1 .
Response: 0

----------
Test system: PIKFYVE
Conditions: concentration: 1 μM, replicates: in singlicate; n = 1
Reported %Inh is given for each of the following molecules.
Write the answer as a number in %, unit excluded.

Prompt: Which measured %Inh value corresponds to Cn1cc(-c2cnc(N)c3c(-c4ccc5c(c4)CCN5C(=O)Cc4ccccc4)csc23)cn1 ?
Response: 0

----------
System: CAMK2G
Conditions: concentration: 1 μM, replicates: in singlicate; n = 1
value.type: %Inh (%)
The figure you give is taken to be in %; do not add the unit.

Worked examples follow.
[
  {
    "molecule": "CNc1nccc(-c2ccc3c(N)n[nH]c3c2)n1",
    "%Inh / %": 33
  },
  {
    "molecule": "Nc1ncnc2scc(-c3ccc(NC(=O)Cc4cc(F)ccc4F)cc3)c12.O=C(O)C(F)(F)F",
    "%Inh / %": 5
  },
  {
    "molecule": "COc1cccc(-c2nc(-c3ccccc3)[nH]c2-c2ccncc2)c1",
    "%Inh / %": 2
  },
  {
    "molecule": "CC(C)c1nc(-c2ccc(F)c(NS(=O)(=O)c3c(F)cccc3F)c2)c(-c2ccnc(Nc3ccc(N4CCOCC4)nc3)n2)s1",
    "%Inh / %": 27
  },
  {
    "molecule": "COc1ccc(NC(=O)c2ccoc2)cc1-c1ccc(C(=O)NCC2CC2)cc1",
    "%Inh / %": 0
  }
]

Next:
Prompt: Name the reported %Inh value associated with the molecule CN(c1ccc2c(c1)nc(NCc1ccccc1)n2C)c1ccnc(Nc2ccc(CS(C)(=O)=O)cc2)n1.Cl
Response: 0

----------
Property: %Inh; scope: individual compounds
Tested on: PRKD2
Details: concentration: 1 μM, replicates: in singlicate; n = 1
Hi, when you answer, please include the unit after the number. Thanks!

Some compounds with known %Inh results, for comparison:
[
  {
    "compound.string": "O=C(O)C(F)(F)F.O=c1[nH]ccc2nc(N[C@@H]3CCNC3)nc(Nc3cc(Cl)cc(Cl)c3)c12",
    "subject.of.test": "PRKD2",
    "%Inh": "93.4%"
  },
  {
    "compound.string": "CCn1cnc2c(NCc3ccccc3)ncnc21",
    "subject.of.test": "PRKD2",
    "%Inh": "0%"
  },
  {
    "compound.string": "CN(c1ccc2c(c1)nc(NCc1ccccc1)n2C)c1ccnc(Nc2ccc(CS(C)(=O)=O)cc2)n1.Cl",
    "subject.of.test": "PRKD2",
    "%Inh": "0%"
  },
  {
    "compound.string": "CNc1nccc(-c2ccc3c(N)n[nH]c3c2)n1",
    "subject.of.test": "PRKD2",
    "%Inh": "20%"
  },
  {
    "compound.string": "N#CC1(c2cccc(C(=O)Nc3cccc(Oc4ccc5nc(NC(=O)C6CC6)sc5n4)c3)c2)CC1",
    "subject.of.test": "PRKD2",
    "%Inh": "0%"
  }
]

Prompt: Data request, read-out %Inh, for Cl.N#CCc1ccc(Nc2nccc(Nc3ccc(Oc4ccccc4)cc3)n2)cc1
Response: 0%

Prompt: Bench note: what %Inh did CN(c1ccc(NC(=O)N2CCN(CCCN3CCOCC3)CC2)cc1)c1ccnc(Nc2ccc(CS(C)(=O)=O)cc2)n1.Cl show?
Response: 0%

Prompt: What does the record list as %Inh for CCNC(=O)/C=C/c1n[nH]c2cc(Sc3ccccc3C(=O)NC)ccc12 ?
Response: 14%

Prompt: # query: %Inh of entry COc1cccc2c(-c3ccncc3)c(-c3ccc(F)cc3)nn12
Response: 20%

Prompt: Quick one: %Inh of Cc1ccc(NC(=O)c2ccc(Cl)c(Cl)c2)cc1-c1ccc(C(=O)Nc2ccncc2)cc1 ?
Response: 0%

Prompt: Consider the compound COC(=O)Nc1nc2ccc(Oc3ccc(NC(=O)Nc4cc(C(F)(F)F)ccc4F)cc3)cc2[nH]1.Cl and give its measured %Inh.
Response: 3%

Prompt: Could you share which %Inh value was measured for CN(C)c1ncnc2nc[nH]c12 ?
Response: 0%

Prompt: If you can, please state the reported %Inh value of O=C(Nc1n[nH]c2nc(-c3cccc(O)c3)ccc12)C1CC1 .
Response: 20%

Prompt: Returns the measured %Inh for the input compound. Input: CC(C)(C)c1ccc(C(=O)Nc2cn3cc(-n4ccnc4)ccc3n2)cc1
Response: 12%

Prompt: # lookup: %Inh of CCn1c(-c2nonc2N)nc2c(-c3ccccc3)ncc(OCCCN)c21.O=C(O)C(F)(F)F.O=C(O)C(F)(F)F
Response: 93.6%

Prompt: For the compound Cc1cccc(Nc2nc(NCCN)ncc2C(N)=O)c1 , what %Inh is on record?
Response: 87%

Prompt: What value of measured %Inh is listed for CC(C)c1nc(-c2ccc(F)c(NS(=O)(=O)c3c(F)cccc3F)c2)c(-c2ccnc(Nc3ccc(N4CCOCC4)nc3)n2)s1 ?
Response: 99.4%

----------
Test system: ABL1-nonphosphorylated
Details: concentration: 1 μM, replicates: in singlicate; n = 1
value.type: %Inh

[
  {
    "compound": "COC(=O)Nc1nc2cc(Oc3ccc(NC(=O)Nc4cccc(SC)c4)cc3)ccc2[nH]1.Cl",
    "value.type": "%Inh",
    "value.reported": "91.4%"
  }
]

Prompt: Which %Inh is reported with ABL1-nonphosphorylated for this entry: Cl.Cl.NC(CNC(=O)c1cc(Br)c(-c2ccnc3[nH]ccc23)s1)c1ccccc1 (centres unmarked) ?
Response: 21%

Prompt: Under ABL1-nonphosphorylated: %Inh value of Cc1ccc(O)cc1Nc1ccnc2cc(-c3ccc(CN4CCCCC4)o3)ccc12 ?
Response: 100%

Prompt: Observed %Inh on ABL1-nonphosphorylated for Cl.Cl.NCC(NC(=O)c1cc(-c2cccnc2)c(-c2ccnc3[nH]ccc23)s1)c1ccccc1 (centres unmarked) , please.
Response: 54%

Prompt: Recall the recorded %Inh for Cc1ccc(Nc2ccnc(Nc3ccc(C)c(F)c3)n2)cc1O.Cl with ABL1-nonphosphorylated and state it.
Response: 3%

Prompt: # query: %Inh | item Nc1ncnc2scc(-c3ccc(NC(=O)Cc4cc(F)ccc4F)cc3)c12.O=C(O)C(F)(F)F | system: ABL1-nonphosphorylated
Response: 80%

Prompt: Give ABL1-nonphosphorylated %Inh for COC(=O)Nc1nc2ccc(Oc3ccc(NC(=O)Nc4cc(C(F)(F)F)ccc4F)cc3)cc2[nH]1.Cl
Response: 99.4%

Prompt: Form field - read-out: %Inh; system: ABL1-nonphosphorylated; submitted item: CN(c1ccc(NC(=O)N2CCN(CCCN3CCOCC3)CC2)cc1)c1ccnc(Nc2ccc(CS(C)(=O)=O)cc2)n1.Cl
Response: 72%
